# Test system: recombinant guanylate cyclase reporter cell line (Rattus norvegicus, UniProt P19686+P20595)
# Construct: expressed in transfected cells
# Sequence (P20595 1-619): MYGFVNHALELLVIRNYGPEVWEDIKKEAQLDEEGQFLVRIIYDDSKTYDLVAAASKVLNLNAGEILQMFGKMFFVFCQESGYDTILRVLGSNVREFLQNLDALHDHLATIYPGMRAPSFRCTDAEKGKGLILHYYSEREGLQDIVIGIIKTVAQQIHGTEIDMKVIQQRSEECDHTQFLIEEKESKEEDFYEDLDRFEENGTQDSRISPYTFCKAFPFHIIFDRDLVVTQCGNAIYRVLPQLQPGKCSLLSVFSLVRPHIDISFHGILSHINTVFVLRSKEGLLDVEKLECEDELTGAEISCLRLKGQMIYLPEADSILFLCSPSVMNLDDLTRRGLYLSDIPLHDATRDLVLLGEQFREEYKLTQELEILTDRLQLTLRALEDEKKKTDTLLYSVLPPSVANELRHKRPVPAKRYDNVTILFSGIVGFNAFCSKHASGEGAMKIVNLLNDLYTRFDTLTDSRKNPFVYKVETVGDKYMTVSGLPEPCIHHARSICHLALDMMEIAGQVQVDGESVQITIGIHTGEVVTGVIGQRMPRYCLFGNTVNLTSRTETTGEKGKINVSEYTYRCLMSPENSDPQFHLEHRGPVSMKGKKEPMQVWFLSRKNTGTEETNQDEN
# Sequence (P19686 1-690): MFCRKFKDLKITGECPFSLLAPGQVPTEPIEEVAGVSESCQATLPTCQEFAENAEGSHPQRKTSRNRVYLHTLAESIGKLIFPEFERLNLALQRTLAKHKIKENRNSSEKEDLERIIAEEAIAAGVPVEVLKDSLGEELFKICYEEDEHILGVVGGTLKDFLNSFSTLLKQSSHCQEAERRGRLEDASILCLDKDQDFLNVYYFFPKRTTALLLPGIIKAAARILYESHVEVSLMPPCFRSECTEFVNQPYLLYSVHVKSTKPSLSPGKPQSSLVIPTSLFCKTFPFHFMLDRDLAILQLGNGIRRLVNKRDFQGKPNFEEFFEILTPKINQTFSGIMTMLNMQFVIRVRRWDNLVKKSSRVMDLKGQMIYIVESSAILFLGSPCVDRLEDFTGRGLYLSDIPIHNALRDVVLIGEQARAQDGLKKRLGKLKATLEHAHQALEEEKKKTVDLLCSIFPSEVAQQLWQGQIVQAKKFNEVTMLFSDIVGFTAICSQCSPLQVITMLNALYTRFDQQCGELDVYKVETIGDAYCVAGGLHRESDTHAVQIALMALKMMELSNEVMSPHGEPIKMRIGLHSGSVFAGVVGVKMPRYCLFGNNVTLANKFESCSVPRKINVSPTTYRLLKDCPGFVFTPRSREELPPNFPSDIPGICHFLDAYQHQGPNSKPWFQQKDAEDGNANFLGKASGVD
# Test name: Action on recombinant guanylate cyclase reporter cell line
# Type: cell-based
# Particulars: in some cases mean values obtained from individual determinations
Metric name: MEC (minimal effective concentration) (µM)

                                   molecule  obs_value
0  Cc1nc2c(OCC3CCCCC3)cccn2c1C(=O)NC[C@@H](O)CO        0.3
1  Cc1nc2c(OCc3c(F)cccc3F)cccn2c1C(=O)N[C@@H](CO)Cc1ccccc1        0.3
2  Cc1nc2c(OCc3c(F)cccc3F)cccn2c1C(=O)NC(CO)C(F)(F)F (racemic)        0.3
